measured.target: T1, Human factor Xa (human, UniProt P00742 41-179; P00742 235-488)
T1 construct: also called FXa; source: bought: Enzyme Research Laboratories (HFXa 1011)
T1 sequence (P00742 41-179, chain 1 of 2): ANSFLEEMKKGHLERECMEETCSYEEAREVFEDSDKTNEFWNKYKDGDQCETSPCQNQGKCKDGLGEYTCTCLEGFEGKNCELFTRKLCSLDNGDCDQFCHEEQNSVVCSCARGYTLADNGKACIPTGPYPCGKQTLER
T1 sequence (P00742 235-488, chain 2 of 2): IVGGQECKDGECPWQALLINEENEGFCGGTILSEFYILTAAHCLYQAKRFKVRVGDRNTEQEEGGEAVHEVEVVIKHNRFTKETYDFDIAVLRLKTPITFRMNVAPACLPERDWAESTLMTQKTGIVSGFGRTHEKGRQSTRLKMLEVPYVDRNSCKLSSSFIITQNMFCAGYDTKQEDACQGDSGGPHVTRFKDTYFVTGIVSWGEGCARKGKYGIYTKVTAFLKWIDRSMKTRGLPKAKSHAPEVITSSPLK
assay.comment: SPR; thrombin and FXa immobilised on a CM-5 sensor chip by amine coupling; LL-37 or Cramp flowed in HBS-EP+ running buffer at 30 ul/min; BIAcore 3000; KD from the Langmuir model
assay.context: both partners purified
assay.endpoint: pKd
FYI, pKd means -log10 of a concentration in mol per litre.

Task: Quick one: give measured pKd for GLLRKGGEKIGEKLKKIGQKIKNFFQKLVPQPE (also called LL-37 homolog from Mus musculus; cathelicidin peptide; source: synthetic peptide (GL Biochem, Shanghai; purity > 98%)) [Cramp]
Output: 3.50
